# Tested on: Vero
# Assay explanation: Cytotoxicity against african green monkey Vero cells
# Assay type: cell-based
# Conditions used: Chlorocebus sabaeus
# note: exactly 300 µM is not below, so it is NOT MET; use MET for IC50 strictly under it

For this compound, is IC50 lower than 300 µM? O=C(O)c1cn(C2CC2)c2cc(N3CCNCC3)c(F)cc2c1=O [CIPROFLOXACIN]
MET

For this compound, is IC50 lower than 300 µM? `COc1cc(Cn2cc(CNC(=O)c3ccc([N+](=O)[O-])o3)nn2)ccc1O`
MET

For this compound, is IC50 lower than 300 µM? `COc1ccc(Cn2cc(CNC(=O)c3ccc([N+](=O)[O-])o3)nn2)cc1F`
NOT MET
